Just for reference, paper PMC6259618 is where these values come from.

System: human prostate carcinoma PC-3 cells
Settings: PC-3 cells, ^111In- or ^125I-labeled peptide, medium without FCS, gamma-counter
measurementName: Incubation time to maximal radioligand binding / binding saturation
Please append the unit to your numeric answer.

The following substances have reported results that may help.
{"substance": "FRPNRAQDYNTN [DUP-1]", "result": "5 min"}
{"substance": "NRAQDY [DUP-4-9]", "result": "30 min"}
{"substance": "C-FRPNRAQDYNTN-C (disulfide) [cDUPc]", "result": "60 min"}

Now take the following substance into account.
According to the records, this substance fRPNRAQDYNTN [dPhe-DUP-1] displays Incubation time to maximal radioligand binding / binding saturation of 60 min
